system: UACC-62 melanoma; assay: NCI-60 one-dose screen, 48 h (100 = growth as untreated, 0 = no growth, -100 = all killed); conditions: 10 µM unless noted
This is part of a sample that, as a whole, favours compounds with a hit. Of some 83,000 tested, about 20% had one in any assay.
Property Name: growth (%)
Give just the number in %; leave the unit off.

| Compound | growth, % |
| --- | --- |
| CCCCCCCCN(CCCCCCCC)CC(O)c1cc(-c2ccccc2)nc2ccc(OC)cc12 (stereo not given) | 52.5 |

Entry "O=C(Nc1ccc(-n2cc(-c3ccncc3)c(-c3ccc(O)c(Cl)c3)n2)cc1)c1cc(C(F)(F)F)cc(C(F)(F)F)c1" has what growth? 71.2

Entry "CC(C)(C)C(=O)/C=c1/[nH]c(=O)/c(=C/c2ccccc2O)s1" has what growth? 58.3

* * *

test system: DU-145 prostate; assay: NCI-60 one-dose screen, 48 h (100 = growth as untreated, 0 = no growth, -100 = all killed); conditions: 10 µM unless noted
This is part of a sample that, as a whole, favours compounds with a hit. Of some 83,000 tested, about 20% had one in any assay.
Measured growth accompanies every entry in the list below.
Give just the number in %; leave the unit off.

The cases that follow already have their growth on record.
| Query Smiles | Value Unit | Numeric Result |
| --- | --- | --- |
| O=C1COc2ccccc2C(=O)N1CCCCN1CCCCC1 | % | 93.7 |
| CCCCOc1c(N)cccc1C(=O)OCCN(CC)CC | % | 103 |
| CCN(CC)CC(=O)Nc1c(C)cccc1C | % | 121 |
| O=C(Nc1ccc(-n2cc(-c3ccncc3)c(-c3ccc(O)c(Cl)c3)n2)cc1)c1ccc(Cl)c(C(F)(F)F)c1 | % | 35.3 |
| O=C(/C=C/c1ccco1)c1cccc(Nc2nc(Nc3ccccc3)nc(Nc3ccccc3)n2)c1 | % | 95 |
| COc1ccc(-c2nn(-c3ccc(NC(=O)c4ccc(Cl)c(C(F)(F)F)c4)cc3)cc2-c2ccncc2)cc1Cl | % | 45 |

Entry "O=C(O)c1cc2ccccc2cc1Nc1ccccc1" has what growth? 113

Entry "O=C(Nc1cccc([N+](=O)[O-])c1)c1ccc2ccccc2c1O" has what growth? 79.3

Entry "c1ccc(CNCCN(CCNCc2ccccn2)Cc2ccc3ccccc3c2)nc1" has what growth? 13.7

Entry "COc1cccc(-c2nc3sccn3c2-c2ccnc(NCCNC(=O)c3ccccc3)n2)c1" has what growth? 100

Entry "O=C1CCC(=O)N1C1CCCCC1" has what growth? 107

* * *

test system: SNB-75 CNS; assay: NCI-60 one-dose screen, 48 h; details: 10 µM unless noted
This is part of a sample that, as a whole, favours compounds with a hit. Of some 83,000 tested, about 20% had one in any assay. Active and inactive are the calls of the source. How the source made its calls: active means growth percent below 10; inactive means the rest.
Select the correct class. Options are active, inactive and nothing else.

Previously resolved entries follow.
| Molecule | Label Class |
| --- | --- |
| Clc1ccc2c(c1)nnn1c3ncccc3c(Br)c21 | active |
| CCCCNc1cc(C(=O)O)cc(S(N)(=O)=O)c1Oc1ccccc1 | inactive |
| Nc1n[nH]c2cccc(C#Cc3cccc(NC(=O)c4cccc(C(F)(F)F)c4)c3)c12 | inactive |
| C=C(C)[C@@H]1C/C=C(\COC(=O)[C@H](OC(C)=O)C(NC(=O)c2ccccc2)c2ccccc2)CC[C@H]2O[C@]2(C)CC/C=C(\C)CC1 (stereo partly specified) | inactive |
| O=C(Nc1ccc(F)cc1)Nc1ccc(Cl)c([N+](=O)[O-])c1 | inactive |

Next molecule, please.
Dear all, I need the recorded test outcome for "COc1cc(NS(C)(=O)=O)ccc1Cc1c2ccccc2nc2ccccc12" , thank you. inactive

* * *

tested on: RPMI-8226 leukemia; assay: NCI-60 one-dose screen, 48 h; details: 10 µM unless noted
About 83,000 compounds went through this panel and 20% of them were active in at least one assay; those are over-represented in the sample as a whole. Activity calls are given as the source filed them. How the source made its calls: active means growth percent below 10; inactive means the rest.
Select the correct class. Options are active, inactive and nothing else.

| Molecule | Label Class |
| --- | --- |
| Cc1cn(-c2nc3c(c(NCc4ccccc4)n2)COCC3)c2cccc(C(N)=O)c12 | active |
| CN1CCN(CC(=O)N(C)c2ccc(N=C(c3ccccc3)c3c(O)[nH]c4ccc(C#N)cc34)cc2)CC1 | inactive |
| C/C(=N\N=C1/SCC(=O)N1c1ccccc1)c1ccco1 | inactive |
| Clc1ccc(OCc2nc(-c3ccccc3)n[nH]2)c(Cl)c1 | inactive |
| O=[N+]([O-])c1cccc(C2c3ccccc3Oc3ccccc32)c1 | inactive |
| C=C1C(=O)O[C@H]2[C@H]1CC/C(C(=O)Nc1ccc(OC)c(C(N)=O)c1O)=C\CC[C@@]1(C)O[C@@H]21 | inactive |
| CN1C(=O)C2(NN=C(c3cccc4ccccc34)S2)c2ccccc21 (stereo not given) | inactive |
| Nc1nccc2c1ccn2-c1cccc(NC(=O)c2ccc(N3CCOCC3)c(C(F)(F)F)c2)c1 | active |
| O=C(NCCNc1nccc(-c2c(-c3cccc(O)c3)nc3sccn23)n1)c1ccc(N2CCOCC2)c(C(F)(F)F)c1 | inactive |
| Nc1ccc(S(=O)(=O)Nc2cc(I)cc(I)c2)cc1 | inactive |

Dear all, I need the recorded test outcome for "Oc1ccc(O)c(-[n+]2ccccc2)c1" , thank you. inactive

Dear all, I need the recorded test outcome for "O=C(O)c1cccc(S(=O)(=O)c2ccccc2)c1" , thank you. inactive

Dear all, I need the recorded test outcome for "CCOC(=O)c1noc2c1CCc1c-2cn(Cc2ccc(OC)cc2)c1-c1cc(OC)c(OC)c(OC)c1" , thank you. inactive

Dear all, I need the recorded test outcome for "O=C(Nc1ccc(-n2ccc3c(NC(=O)c4ccccc4)nccc32)cc1)Nc1cccc(C(F)(F)F)c1" , thank you. inactive

Dear all, I need the recorded test outcome for Cc1ccc2c(C3C(C#N)=C(N)Oc4cc5ccccc5cc43)cc(=O)oc2c1 (stereo not given) , thank you. inactive

* * *

tested on: SF-295 CNS; assay: NCI-60 one-dose screen, 48 h; conditions: 10 µM unless noted
Compounds without any hit were thinned out: in the full panel of roughly 83,000, 20% have a hit. Activity calls are given as the source filed them. How the source made its calls: active means growth percent below 10; inactive means the rest.
Select the correct class. Options are active, inactive and nothing else.

Previously resolved entries follow.
| Compound | Label Class |
| --- | --- |
| CCC(CC(C)C)Nc1ccc(NC(CC)CC(C)C)cc1 (centres undefined) | inactive |
| CN1CCN(C(=O)/C=C/c2ccc([N+](=O)[O-])o2)CC1 | inactive |
| C=CCn1c(SCC(=O)Nc2ccc(/C(C)=N\O)cc2)nnc1-c1cc(-c2ccc(OC)cc2)nc2ccccc12 | inactive |
| CC(C)(C)C(=O)Nc1nc2c(s1)CCc1ccn(S(=O)(=O)c3ccccc3)c1-2 | inactive |
| N#Cc1c(N)nc2c(c1N)C(c1ccc(Cl)cc1)C1=C(CCCC1=O)N2c1sc2c(c1C#N)CCCC2 (centres undefined) | inactive |
| COc1ccc(-n2c(-c3ccc(NC(=O)CCCl)cc3)nnc2-c2cc(OC)c(OC)c(OC)c2)cc1 | inactive |

Next compound, please.
Dear all, I need the recorded test outcome for "CC1(C)CC(=O)C2=C(C1)OC1=C(C(=O)CC(C)(C)C1)C2c1ccc(OCc2cn(-c3ccc(F)cc3F)nn2)cc1" , thank you. inactive

* * *

tested on: SF-295 CNS; test: NCI-60 one-dose screen, 48 h; details: 10 µM unless noted
The panel holds about 83,000 compounds, 20% with a hit somewhere; the sample as a whole holds those more often. Activity calls are given as the source filed them. The calls were made as follows: active = growth percent below 10; inactive = the rest.
Select the correct class. Options are Yes (active), No (inactive) and nothing else.

| Molecule | Label Class |
| --- | --- |
| CC(=O)CC/C=C(\C)[C@H](O)[C@H](C)C(=O)O[C@H]1C[C@H](C)C=C2C=C[C@@]3(C)O[C@@H](O)CC(=O)[C@]3(C)[C@H]21 | Yes |
| O=C(O)c1cccc2oc(-c3ccccc3O)nc12 | No |
| O=C(Nc1ccc(-n2cc(-c3ccncc3)c(-c3ccc(O)c(Cl)c3)n2)cc1)c1ccc(Cl)c(Cl)c1 | Yes |

Dear all, I need the recorded test outcome for "O=C(Cn1c2ccccc2c2ccncc21)N/N=C/c1cc(O)c(O)c(O)c1" , thank you. No

Dear all, I need the recorded test outcome for "CCCCOc1c(N)cccc1C(=O)OCCN(CC)CC" , thank you. No

Dear all, I need the recorded test outcome for "O=C(N/N=C/c1ccccc1O)c1ccccc1O" , thank you. No

Dear all, I need the recorded test outcome for O=C(c1cc(-c2ccc(Cl)cc2)nc2ccccc12)N1N=C(c2ccccc2)CC1c1cc(-c2ccccc2)nn1-c1ccccc1 (stereo not given) , thank you. No

Dear all, I need the recorded test outcome for "CCN(CC)CC(=O)Nc1c(C)cccc1C" , thank you. No

Dear all, I need the recorded test outcome for "Clc1ccc(OCc2nc(-c3ccccc3)n[nH]2)c(Cl)c1" , thank you. No

Dear all, I need the recorded test outcome for CC(C)NCC(O)COc1ccc(CC(N)=O)cc1 (stereo not given) , thank you. No
